TGT: JAK2 (Homo sapiens)
Construct: made in house; host or cells: T7 phage display or HEK-293 cells (alternatives)
Sequence (O60674 whole entry): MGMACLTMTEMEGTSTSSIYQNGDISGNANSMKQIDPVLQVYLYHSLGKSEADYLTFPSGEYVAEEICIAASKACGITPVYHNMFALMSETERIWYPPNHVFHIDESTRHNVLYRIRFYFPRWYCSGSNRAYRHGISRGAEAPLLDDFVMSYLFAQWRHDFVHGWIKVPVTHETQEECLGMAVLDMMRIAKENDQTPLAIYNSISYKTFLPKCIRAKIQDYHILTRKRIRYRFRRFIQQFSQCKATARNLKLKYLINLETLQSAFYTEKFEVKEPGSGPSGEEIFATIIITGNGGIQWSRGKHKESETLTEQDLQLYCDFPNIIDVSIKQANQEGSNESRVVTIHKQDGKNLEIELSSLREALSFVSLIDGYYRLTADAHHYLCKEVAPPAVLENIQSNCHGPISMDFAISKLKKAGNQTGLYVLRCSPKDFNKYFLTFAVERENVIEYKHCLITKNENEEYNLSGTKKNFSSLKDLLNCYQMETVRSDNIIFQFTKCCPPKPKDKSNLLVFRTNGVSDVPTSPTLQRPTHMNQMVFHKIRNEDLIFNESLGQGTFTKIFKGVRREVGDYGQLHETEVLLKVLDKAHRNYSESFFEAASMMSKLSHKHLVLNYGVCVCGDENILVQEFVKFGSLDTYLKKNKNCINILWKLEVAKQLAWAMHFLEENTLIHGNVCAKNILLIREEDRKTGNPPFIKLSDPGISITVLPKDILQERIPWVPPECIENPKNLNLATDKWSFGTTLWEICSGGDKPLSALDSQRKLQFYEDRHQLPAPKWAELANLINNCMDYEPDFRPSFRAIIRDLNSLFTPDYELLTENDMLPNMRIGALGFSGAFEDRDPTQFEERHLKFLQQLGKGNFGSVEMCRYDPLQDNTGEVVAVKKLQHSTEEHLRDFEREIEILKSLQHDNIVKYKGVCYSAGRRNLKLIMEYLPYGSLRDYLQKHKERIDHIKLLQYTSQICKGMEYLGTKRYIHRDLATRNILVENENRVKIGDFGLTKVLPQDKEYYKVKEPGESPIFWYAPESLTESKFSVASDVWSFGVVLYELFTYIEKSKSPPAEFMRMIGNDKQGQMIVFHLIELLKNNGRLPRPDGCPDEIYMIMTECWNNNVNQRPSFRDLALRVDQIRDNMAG
ASSAY NOTES: Competition binding assay, JAK2
pKd: −log10 of the molar value.
MEASURED QUANTITY: pKd

As a guide, the following entries are already answered.
Cc1cc(Nc2nc(C(F)(F)c3ccc(F)cc3)nc3cc(-c4cncnc4)ccc23)n[nH]1 ≥ 9.00
Cc1cc(Nc2nc(C(F)(F)c3ccc(F)cc3)nc3cc(-c4c(C)noc4C)ccc23)n[nH]1 8.00 to 9.00
Cc1cc(Nc2nc(C(F)(F)c3ccc(F)cc3)nc3cc(CN4CCOCC4)ccc23)n[nH]1 ≥ 9.00
Cc1cc(Nc2nc(C(F)(F)c3ccc(F)cc3)nc3cc(C4=CCOCC4)ccc23)n[nH]1 8.00 to 9.00

For every record below, what is its pKd?
1. Cc1cc(Nc2nc(C(F)(F)c3ccc(F)cc3)nc3cc(C4(O)COC4)ccc23)n[nH]1
2. Cc1cc(Nc2nc(C(F)(F)c3ccc(F)cc3)nc3cc(-c4cnn(C)c4)ccc23)n[nH]1
3. Cc1cc(Nc2nc(C(F)(F)c3ccc(F)cc3)nc3cc(N4C[C@H](O)CC4=O)ccc23)n[nH]1
4. Cc1cc(Nc2nc(C(F)(F)c3ccc(F)cc3)nc3cc(-c4ccccc4O)ccc23)n[nH]1

Response:
1. ≥ 9.00
2. ≥ 9.00
3. ≥ 9.00
4. 8.00 to 9.00

* * *

System: distinct kinases tested excluding mutant variants, typically 359 or 386 kinases
ASSAY NOTES: Kinase panel competition binding, selectivity score
SETTINGS: compound at 10 μM; fraction of kinases with inhibition of 90% or greater
MEASURED QUANTITY: S-Score: S(10) at 10 μM

Cc1cc(Nc2nc(C(F)(F)c3ccc(F)cc3)nc3cc(N4C[C@H](O)CC4=O)ccc23)n[nH]1 D (D>0.5)
Cc1cc(Nc2nc(C(F)(F)c3ccc(F)cc3)nc3cc(-c4cnn(C)c4)ccc23)n[nH]1 A (A≦0.3)
Cc1cc(Nc2nc(C(F)(F)c3ccc(F)cc3)nc3cc(-c4cncnc4)ccc23)n[nH]1 A (A≦0.3)
Cc1cc(Nc2nc(C(F)(F)c3ccc(F)cc3)nc3cc(C4=CCOCC4)ccc23)n[nH]1 A (A≦0.3)
Cc1cc(Nc2nc(C(F)(F)c3ccc(F)cc3)nc3cc(C4(O)COC4)ccc23)n[nH]1 D (D>0.5)

Okay, here is my list. What is S-Score: S(10) at 10 μM for each of these?
1. Cc1cc(Nc2nc(C(F)(F)c3ccc(F)cc3)nc3cc(-c4ccccc4O)ccc23)n[nH]1
2. Cc1cc(Nc2nc(C(F)(F)c3ccc(F)cc3)nc3cc(CN4CCOCC4)ccc23)n[nH]1

Response:
1. A (A≦0.3)
2. D (D>0.5)
